Origin of values: ChEMBL document CHEMBL4715814

Field: MIC. Provide a value for each of the molecules that follow.
- System: Escherichia coli
- test summary: Potentiation of chloramphenicol-induced antibacterial activity against AcrB deficient Escherichia coli BW25113 assessed as chloramphenicol MIC at 256 ug/ml incubated for 18 hrs under aerobic condition by checkerboard titration assay (reference value: 2 ug/ml)
- Type: functional
- measurement conditions: dose 256 µg/ml

Request the reported MIC associated with NC(=O)c1cc(OCCNCc2ccco2)c2ccccc2c1
1 µg/mL

Request the reported MIC associated with COc1ccc(CNC(=O)c2cc(OCc3ccccc3)c3ccccc3c2)cc1
2 µg/mL

Request the reported MIC associated with NC(=O)c1cc(OCCN2CCN(c3ccccc3)CC2)c2ccccc2c1
2 µg/mL

Request the reported MIC associated with O=C(NCc1ccccc1Cl)c1cc(OCc2ccccc2)c2ccccc2c1
2 µg/mL

Request the reported MIC associated with COc1ccc(CNC(=O)c2cc(OCCC(C)C)c3ccccc3c2)cc1
2 µg/mL

Request the reported MIC associated with O=C(Nc1ccccc1)c1cc(OCc2ccccc2)c2ccccc2c1
2 µg/mL
